- assay_name: Cytotoxicity against MLEC assessed as reduction in cell viability at 50 uM by MTT assay
- setup_conditions: neovison vison
assay_endpoint: Activity

Recorded results for 4 molecules are shown here.
# structure_as_smiles, Activity
rows = [
    ("Cc1c(CNc2cccc(C(N)=O)c2)c(C)c(CNc2cccc(C(N)=O)c2)c(C)c1CNc1cccc(C(N)=O)c1", "Non-Toxic"),
    ("Cc1c(CNc2ccccc2)c(C)c(CNc2ccccc2)c(C)c1CNc1ccccc1", "Non-Toxic"),
    ("CC(=O)c1cccc(NCc2c(C)c(CNc3cccc(C(C)=O)c3)c(C)c(CNc3cccc(C(C)=O)c3)c2C)c1", "Non-Toxic"),
    ("COC(=O)c1ccc(CNCc2c(C)c(CNCc3ccc(C(=O)OC)cc3)c(C)c(CNCc3ccc(C(=O)OC)cc3)c2C)cc1", "Toxic"),
]

For each of the items listed, what is its Activity?
1. COC(=O)c1cccc(CNCc2c(C)c(CNCc3cccc(C(=O)OC)c3)c(C)c(CNCc3cccc(C(=O)OC)c3)c2C)c1
2. COC(=O)c1cccc(NCc2c(C)c(CNc3cccc(C(=O)OC)c3)c(C)c(CNc3cccc(C(=O)OC)c3)c2C)c1

A.
1: Toxic; 2: Non-Toxic

For each of the items listed, what is its Activity?
1. CC(=O)c1ccc(NCc2c(C)c(CNc3ccc(C(C)=O)cc3)c(C)c(CNc3ccc(C(C)=O)cc3)c2C)cc1
2. Cc1c(CNCc2ccccc2)c(C)c(CNCc2ccccc2)c(C)c1CNCc1ccccc1
3. Cc1c(CNc2ccc(C(N)=O)cc2)c(C)c(CNc2ccc(C(N)=O)cc2)c(C)c1CNc1ccc(C(N)=O)cc1

A.
["Non-Toxic", "Toxic", "Non-Toxic"]

Q. Given the entry COC(=O)c1ccc(NCc2c(C)c(CNc3ccc(C(=O)OC)cc3)c(C)c(CNc3ccc(C(=O)OC)cc3)c2C)cc1 , report its measured Activity.
A. Non-Toxic
